assay: isobaric coefficient of expansion; conditions: 298.15 K; 35000 kPa; Liquid; DSC with Pressure Shift
measured endpoint: isobaric coefficient of expansion

• CCCCCCCCCCO = 0.000715 1/K
• CCCCCO = 0.000772 1/K
• CCCO = 0.000843 1/K

----------
assay: isobaric coefficient of expansion; details: 338.15 K; 15000 kPa; Liquid; DSC with Pressure Shift
measured endpoint: isobaric coefficient of expansion

- CCCCCO: 0.000927 1/K
- CCC(O)CC: 0.0011 1/K
- CCCCCCCCCCO: 0.000819 1/K
- CCCC(C)O (stereo not drawn): 0.00107 1/K
- CCCO: 0.00104 1/K
- CCCCCN: 0.00112 1/K
- CCCCCCCCCO: 0.000831 1/K
- CCCCCCO: 0.000903 1/K

----------
Parameter: isobaric coefficient of expansion. Scope: all listed entries.
test: isobaric coefficient of expansion; conditions: 318.15 K; 25000 kPa; Liquid; DSC with Pressure Shift
measured endpoint: isobaric coefficient of expansion

• CCCC(C)O (stereo unspecified) = 0.000946 1/K
• CCCCCO = 0.00083 1/K
• CCCCCCCCCO = 0.000764 1/K
• CCCCCN = 0.00104 1/K
• CCC(O)CC = 0.00097 1/K
• CCCCCCCCO = 0.000775 1/K
• CCO = 0.000988 1/K
• CCCO = 0.000922 1/K
• CCCCCCO = 0.000812 1/K
• CCCCCCCO = 0.000792 1/K
• CCCCCCCCCCO = 0.000758 1/K

----------
assay: isobaric coefficient of expansion; conditions: 298.15 K; 35000 kPa; Liquid; DSC with Pressure Shift
measured endpoint: isobaric coefficient of expansion

- CCO: 0.000908 1/K
- CCCCCCCCO: 0.000724 1/K
- CCCCCCCO: 0.000734 1/K
- CCC(O)CC: 0.000866 1/K
- CCCC(C)O (stereo not drawn): 0.000834 1/K
- CCCCCCCCCO: 0.00072 1/K
- CCCCCN: 0.000981 1/K
- CCCCCCO: 0.000749 1/K

----------
Parameter: isobaric coefficient of expansion. Scope: all listed entries.
assay: isobaric coefficient of expansion; settings: 308.15 K; 10000 kPa; Liquid; DSC with Pressure Shift
measured endpoint: isobaric coefficient of expansion

• CCC(O)CC = 0.00099 1/K
• CCCCCCCO = 0.000832 1/K
• CCCO = 0.000975 1/K
• CCCCCCCCCCO = 0.0008 1/K
• CCCCCCCCCO = 0.00081 1/K
• CCO = 0.00105 1/K
• CCCCCCO = 0.000853 1/K
• CCCCCO = 0.000883 1/K
• CCCCCCCCO = 0.000821 1/K
• CCCC(C)O (stereo unspecified) = 0.000983 1/K
• CCCCCN = 0.00111 1/K

----------
experiment: isobaric coefficient of expansion; details: 328.15 K; 15000 kPa; Liquid; DSC with Pressure Shift
measured endpoint: isobaric coefficient of expansion

* CCCC(C)O (stereo unspecified) | 0.00103 1/K
* CCCCCN | 0.0011 1/K
* CCO | 0.00108 1/K
* CCC(O)CC | 0.00104 1/K
* CCCCCO | 0.000899 1/K
* CCCCCCCCO | 0.000827 1/K
* CCCO | 0.00101 1/K
* CCCCCCCCCCO | 0.000803 1/K
* CCCCCCCCCO | 0.000815 1/K
* CCCCCCO | 0.000876 1/K
* CCCCCCCO | 0.000849 1/K
